Measured values drawn from patent US20110105397A1 for this set.

# measurement_description: Nonclinical pharmacokinetics in dogs
# Design: species or system dog
# assay_conditions: male, in vivo; dog IV infusion 3 hours, M, 16.7 ng/kg/min; read-out: CL
attribute_measured: clearance (mL/min/kg)
# number only, unit mL/min/kg dropped from output

Lookup: What does the data say about its clearance? Entry: H-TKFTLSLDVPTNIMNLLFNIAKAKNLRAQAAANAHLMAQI-NH2 [SEQ ID NO: 1]
Found: 3.99

----------
# measurement_description: Human pharmacokinetics, healthy subjects, 7.5-hour continuous ascending dose IV infusion
# Assay type: in vivo
# assay_conditions: human, in vivo, healthy subjects, infusion rate 1/3/9 ng/kg/min, mean, N = 4; read-out: CL (converted)
attribute_measured: clearance
# include the unit after the value

Lookup: What does the data say about its clearance? Entry: H-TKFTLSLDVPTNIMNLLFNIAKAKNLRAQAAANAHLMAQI-NH2 [SEQ ID NO: 1]
Found: 4.67 mL/min/kg

----------
# measurement_description: Nonclinical pharmacokinetics in dogs
# Set-up: species or system dog
# assay_conditions: male, in vivo; dog IV infusion 3 hours, M, 33.3 ng/kg/min; read-out: Cmax
attribute_measured: Cmax (ng/mL)
# number only, unit ng/mL dropped from output

Lookup: What does the data say about its Cmax? Entry: H-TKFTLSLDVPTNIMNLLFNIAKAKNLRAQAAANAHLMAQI-NH2 [SEQ ID NO: 1]
Found: 10

----------
# measurement_description: Human pharmacokinetics, heart failure subjects, 7.5-hour continuous ascending dose IV infusion
# assay_conditions: in vivo, infusion rate 9/18/36 ng/kg/min, mean, N = 2, read-out: T1/2, effective (converted)
attribute_measured: half-life (h)
# number only, unit h dropped from output

Lookup: What does the data say about its half-life? Entry: H-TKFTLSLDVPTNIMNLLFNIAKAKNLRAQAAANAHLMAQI-NH2 [SEQ ID NO: 1]
Found: 3.95

----------
# measurement_description: Nonclinical pharmacokinetics in cynomolgus monkeys
# assay_conditions: male, cynomolgus monkey, in vivo; cyno IV infusion 3 hours, M, 33.3 ng/kg/min
attribute_measured: Cmax
# include the unit after the value

Lookup: What does the data say about its Cmax? Entry: H-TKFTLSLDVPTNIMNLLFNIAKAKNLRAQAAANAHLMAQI-NH2 [SEQ ID NO: 1]
Found: 1.48 ng/mL

----------
# measurement_description: Human pharmacokinetics, healthy subjects, 7.5-hour continuous ascending dose IV infusion
# Type: in vivo
# assay_conditions: human, in vivo, iv, healthy humans, intravenous infusion, for a 70-kg person; read-out: clearance (CL) (converted)
attribute_measured: clearance

Lookup: What does the data say about its clearance? Entry: H-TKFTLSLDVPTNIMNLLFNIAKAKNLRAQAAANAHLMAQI-NH2 [SEQ ID NO: 1]
Found: ~500 mL/min
